Data credit: ChEMBL document CHEMBL1156160

tested on: Hepatitis C virus; experiment: Antiviral activity against HCV in human hepatoma cells assessed as inhibition of RNA replication by replicon assay; format: functional, Hepacivirus hominis
Experimental readout: EC90 (nM)
Hi! Could you send only the number? It should be in nM, unit omitted.

# Compound, Target entity, EC90, nM
measured = [
    ("CC(C)(C)[C@H](NC(=O)NC1(Cc2cccnc2)CCCCC1)C(=O)N1C[C@H]2[C@@H]([C@H]1C(=O)NC(CC1CC1)C(=O)C(N)=O)C2(C)C (stereo partly specified)", "Hepatitis C virus", 400),
]

QUERY: Annotate the compound CC(C)(C)[C@H](NC(=O)NC1(Cc2ccncc2)CCCCC1)C(=O)N1C[C@H]2[C@@H]([C@H]1C(=O)NC(CC1CC1)C(=O)C(N)=O)C2(C)C (stereo partly specified) with its measured EC90.
RESULT: 300

QUERY: Annotate the compound CC(C)(C)[C@H](NC(=O)NC1(CS(=O)(=O)c2cccc(O)c2)CCCCC1)C(=O)N1C[C@H]2[C@@H]([C@H]1C(=O)NC(CC1CC1)C(=O)C(N)=O)C2(C)C (stereo partly specified) with its measured EC90.
RESULT: 1000

QUERY: Annotate the compound CC(C)(C)[C@H](NC(=O)NC1(Cc2ccc(O)cc2)CCCCC1)C(=O)N1C[C@H]2[C@@H]([C@H]1C(=O)NC(CC1CC1)C(=O)C(N)=O)C2(C)C (stereo partly specified) with its measured EC90.
RESULT: 400

QUERY: Annotate the compound CCC(c1ccccc1)C1(NC(=O)N[C@H](C(=O)N2C[C@H]3[C@@H]([C@H]2C(=O)NC(CC2CC2)C(=O)C(N)=O)C3(C)C)C(C)(C)C)CCCCC1 (stereo partly specified) with its measured EC90.
RESULT: 400
